pIC50 values by entry
Test system: CWR22R
Assay: Antiproliferative activity against human 22Rv1 cells assessed as inhibition of cell growth incubated for 96 to 120 hrs by celltiter glo assay
Assay type: functional, cell-based
Keep it numeric: pIC50 is minus log10 of the concentration in mol/L.

Find pIC50 (CWR22R) for the entry `Cc1n[nH]c2ccc(-c3nc4cnc(N5CCN(C)CC5)cn4c3Nc3ccc(F)cc3)cc12`
4.47

---

Target: Bromodomain-containing protein 4 (Homo sapiens)
Conditions: dose 200.0 µM, time 30-60 min
Description: Binding affinity to BRD4-BD1 (unknown origin) assessed as change in melting temperature at 200 uM incubated for 30 to 60 mins by SYPRO orange dye based thermal shift assay
With a cut-off of 6 °C, any ΔTm strictly below it is called T; any ΔTm meeting it or above is called F.

Example cases with answers are listed next.
INSERT INTO results (cpd_smiles, cat) VALUES
  ('Cc1n[nH]c2ccc(-c3nc4cnc(N5CCN(C)CC5)cn4c3Nc3ccc(Cl)cc3F)cc12', 'T'),
  ('COc1ccc(Nc2c(-c3ccc4[nH]nc(C)c4c3)nc3cnc(N4CCN(C)CC4)cn23)cc1OC', 'F'),
  ('Cc1n[nH]c2ccc(-c3nc4cnc(N5CCN(C)CC5)cn4c3Nc3ccc(I)cc3)cc12', 'T'),
  ('COc1ccc(Nc2c(-c3ccc4[nH]nc(C)c4c3)nc3cnc(N4CCOCC4)cn23)cc1', 'F');

# strict comparison: is reported ΔTm < 6 °C? input = `Cc1n[nH]c2ccc(-c3nc4cnc(N5CCOCC5)cn4c3Nc3ccc(Cl)cc3)cc12`
F

---

ΔTm values by entry
Target: Bromodomain-containing protein 4 (Homo sapiens, UniProt O60885)
Conditions: dose 200.0 µM, time 30-60 min
Quick note: give the figure in °C, leave out the unit.

Solved entries:
INSERT INTO assay_data (cpd_smiles, observed_property, readout_units, reported) VALUES
  ('Cc1n[nH]c2ccc(-c3nc4cnc(N5CCN(C)CC5)cn4c3Nc3cc(Cl)ccc3Cl)cc12', 'ΔTm', '°C', 3.9),
  ('Cc1n[nH]c2ccc(-c3nc4cnc(N5CCN(C)CC5)cn4c3Nc3ccc(F)cc3Br)cc12', 'ΔTm', '°C', 5.1),
  ('Cc1n[nH]c2ccc(-c3nc4cnc(N5CCN(C)CC5)cn4c3Nc3ccccc3Cl)cc12', 'ΔTm', '°C', 3.6),
  ('Cc1ccc(C)c(Nc2c(-c3ccc4[nH]nc(C)c4c3)nc3cnc(N4CCN(C)CC4)cn23)c1', 'ΔTm', '°C', 5.3);

Report ΔTm for `Cc1n[nH]c2ccc(-c3nc4cnc(N5CCN(C)CC5)cn4c3Nc3ccc(Br)cc3Cl)cc12` please.
2.7

Note, next up: `Cc1n[nH]c2ccc(-c3nc4cnc(N5CCN(C)CC5)cn4c3Nc3ccc(Cl)cc3)cc12`
5

Note, next up: `Cc1n[nH]c2ccc(-c3nc4cnc(N5CCN(C)CC5)cn4c3Nc3ccc(F)cc3)cc12`
6.5

Note, next up: `Cc1n[nH]c2ccc(-c3nc4cnc(N5CCN(C)CC5)cn4c3Nc3cccc(F)c3)cc12`
6.9

Note, next up: `Cc1n[nH]c2ccc(-c3nc4cnc(N5CCC(C)CC5)cn4c3Nc3ccc(Cl)cc3)cc12`
2.1

---

Molecular target: Bromodomain-containing protein 4 (Homo sapiens, UniProt O60885)
Experiment: Inhibition of BRD4-BD1 (unknown origin) using C-terminal biotinylated tetra-acetylated histone H4 peptide as substrate incubated for 2.5 hrs by alphascreen assay
observed_property: pIC50
Keep it numeric: pIC50 is minus log10 of the concentration in mol/L.

Report pIC50 for `Cc1n[nH]c2ccc(-c3nc4cnc(N5CCN(C)CC5)cn4c3Nc3ccc(F)cc3)cc12` please.
5.38

Note, next up: `Cc1n[nH]c2ccc(-c3nc4cnc(N5CCOCC5)cn4c3Nc3ccc(Br)cc3)cc12`
5.33

---

IC50 values by entry
Target: Bromodomain-containing protein 4 (Homo sapiens, UniProt O60885)
Experiment: Inhibition of BRD4-BD1 (unknown origin) using C-terminal biotinylated tetra-acetylated histone H4 peptide as substrate incubated for 2.5 hrs by alphascreen assay
Quick note: give the figure in µM, leave out the unit.

Solved entries:
INSERT INTO assay_data (cpd_smiles, reported) VALUES
  ('Cc1n[nH]c2ccc(-c3nc4cnc(N5CCN(C)CC5)cn4c3Nc3ccc(Cl)cc3)cc12', 6.35),
  ('Cc1n[nH]c2ccc(-c3nc4cnc(N5CCC(C)CC5)cn4c3Nc3ccc(Cl)cc3)cc12', 20.4);

Report IC50 for `Cc1n[nH]c2ccc(-c3nc4cnc(N5CCN(C)CC5)cn4c3Nc3ccc(Br)cc3)cc12` please.
6.94

Note, next up: `Cc1n[nH]c2ccc(-c3nc4cnc(N5CCN(C)CC5)cn4c3Nc3ccc(F)cc3Br)cc12`
7.48

---

Target: Bromodomain-containing protein 4 (Homo sapiens)
Conditions: dose 200.0 µM, time 30-60 min
With a cut-off of 5 °C, any ΔTm strictly below it is called label 1; any ΔTm meeting it or above is called label 0.

INSERT INTO results (cpd_smiles, cat) VALUES
  ('Cc1n[nH]c2ccc(-c3nc4cnc(N5CCN(C)CC5)cn4c3Nc3cccc(Cl)c3)cc12', 'label 0'),
  ('Cc1n[nH]c2ccc(-c3nc4cnc(N5CCOCC5)cn4c3Nc3ccc(Br)cc3)cc12', 'label 0'),
  ('Cc1n[nH]c2ccc(-c3nc4cnc(N5CCN(C)CC5)cn4c3Nc3ccc(Cl)cc3Cl)cc12', 'label 1'),
  ('Cc1n[nH]c2ccc(-c3nc4cnc(N5CCN(C)CC5)cn4c3Nc3ccccc3F)cc12', 'label 0'),
  ('Cc1cc(Br)ccc1Nc1c(-c2ccc3[nH]nc(C)c3c2)nc2cnc(N3CCN(C)CC3)cn12', 'label 1'),
  ('Cc1n[nH]c2ccc(-c3nc4cnc(N5CCN(C)CC5)cn4c3Nc3ccc(Br)cc3)cc12', 'label 0'),
  ('Cc1n[nH]c2ccc(-c3nc4cnc(N5CCOCC5)cn4c3Cc3ccc(Cl)cc3)cc12', 'label 0');

Attention now turns to another entry.
# strict comparison: is reported ΔTm < 5 °C? input = `COc1ccc(Nc2c(-c3ccc4[nH]nc(C)c4c3)nc3cnc(N4CCN(C)CC4)cn23)cc1`
label 0

---

Tested on: CWR22R
Assay: Antiproliferative activity against human 22Rv1 cells assessed as inhibition of cell growth incubated for 96 to 120 hrs by celltiter glo assay
Assay type: functional, cell-based
pIC50 values by entry
Keep it numeric: pIC50 is minus log10 of the concentration in mol/L.

INSERT INTO assay_data (cpd_smiles, reported) VALUES
  ('Cc1n[nH]c2ccc(-c3nc4cnc(N5CCOCC5)cn4c3Nc3ccccc3)cc12', 4.42),
  ('Cc1sc2c(c1C)C(c1ccc(Cl)cc1)=N[C@@H](CC(=O)OC(C)(C)C)c1nnc(C)n1-2', 7.48),
  ('Cc1n[nH]c2ccc(-c3nc4cnc(N5CCN(C)CC5)cn4c3Nc3ccc(Cl)cc3F)cc12', 4.85),
  ('Cc1n[nH]c2ccc(-c3nc4cnc(N5CCOCC5)cn4c3Nc3ccc(Cl)cc3)cc12', 4.80),
  ('Cc1cc(Br)ccc1Nc1c(-c2ccc3[nH]nc(C)c3c2)nc2cnc(N3CCN(C)CC3)cn12', 5.19);

Report pIC50 for `Cc1n[nH]c2ccc(-c3nc4cnc(N5CCN(C)CC5)cn4c3Nc3ccc(F)c(Cl)c3)cc12` please.
4.85

---

Biological target: Bromodomain-containing protein 4 (Homo sapiens)
Test: Inhibition of BRD4-BD1 (unknown origin) using C-terminal biotinylated tetra-acetylated histone H4 peptide as substrate incubated for 2.5 hrs by alphascreen assay
observed_property: pIC50
Keep it numeric: pIC50 is minus log10 of the concentration in mol/L.

INSERT INTO measurements (cpd_smiles, reported) VALUES
  ('Cc1n[nH]c2ccc(-c3nc4cnc(N5CCN(C)CC5)cn4c3Nc3ccc(Cl)cc3Cl)cc12', 4.79),
  ('Cc1n[nH]c2ccc(-c3nc4cnc(N5CCN(C)CC5)cn4c3Nc3ccc(Cl)cc3F)cc12', 5.17),
  ('Cc1n[nH]c2ccc(-c3nc4cnc(N5CCN(C)CC5)cn4c3Nc3ccccc3F)cc12', 5.00),
  ('Cc1n[nH]c2ccc(-c3nc4cnc(N5CCN(C)CC5)cn4c3Nc3cc(Cl)ccc3Cl)cc12', 5.44),
  ('Cc1n[nH]c2ccc(-c3nc4cnc(N5CCN(C)CC5)cn4c3Nc3cccc(F)c3)cc12', 4.84),
  ('Cc1n[nH]c2ccc(-c3nc4cnc(N5CCN(C)CC5)cn4c3Nc3ccccc3)cc12', 5.21);

Find pIC50 (Bromodomain-containing protein 4 (Homo sapiens)) for the entry `Cc1n[nH]c2ccc(-c3nc4cnc(N5CCOCC5)cn4c3Nc3ccccc3)cc12`
5.42

---

Target: Bromodomain-containing protein 4 (Homo sapiens)
Experiment: Inhibition of BRD4-BD1 (unknown origin) using C-terminal biotinylated tetra-acetylated histone H4 peptide as substrate incubated for 2.5 hrs by alphascreen assay
observed_property: IC50
Phrase the answer as number then unit, nothing more needed.

INSERT INTO measurements (cpd_smiles, reported) VALUES
  ('COc1ccc(Nc2c(-c3ccc4[nH]nc(C)c4c3)nc3cnc(N4CCN(C)CC4)cn23)cc1OC', '12.7 µM'),
  ('Cc1n[nH]c2ccc(-c3nc4cnc(N5CCOCC5)cn4c3Nc3ccc(Cl)cc3)cc12', '3.55 µM'),
  ('COc1ccc(Nc2c(-c3ccc4[nH]nc(C)c4c3)nc3cnc(N4CCOCC4)cn23)cc1', '5.15 µM'),
  ('COc1ccc(Nc2c(-c3ccc4[nH]nc(C)c4c3)nc3cnc(N4CCN(C)CC4)cn23)cc1', '20.5 µM');

Report IC50 for `Cc1n[nH]c2ccc(-c3nc4cnc(N5CCN(C)CC5)cn4c3Nc3ccc(F)c(Cl)c3)cc12` please.
5.81 µM

Recorded values, source ChEMBL document CHEMBL5233284.
